# test-name: Inhibition of AgrC-4 in Staphylococcus aureus
measured-property: pIC50
Bear in mind: pIC50 is minus log10 of a mol/L concentration; give just that figure.

Answered cases to consult:
smiles-str	pIC50
CC[C@H](C)[C@H]1NC(=O)[C@@H](Cc2ccccc2)NC(=O)[C@@H](C)NC(=O)[C@H](NC(=O)[C@H](NC(=O)[C@@H](CO)NC(=O)[C@H](N)Cc2ccc(O)cc2)[C@@H](C)O)CSC(=O)[C@@H](CCSC)NC1=O	8.52
CC[C@@H](C)[C@H](N)C(=O)N[C@H](CC(N)=O)C(=O)N(C)[C@@H]1CSC(=O)[C@@H](CC(C)C)N(C)C(=O)[C@@H](CC(C)C)NC(=O)CN(Cc2ccccc2)C(=O)[C@@H](CC(=O)O)NC1=O	8.18
CC[C@@H](C)[C@H](NC(C)=O)C(=O)N[C@H](CC(N)=O)C(=O)N[C@@H]1CSC(=O)[C@@H](Cc2ccccc2)NC(=O)[C@@H](CC(C)C)NC(=O)[C@@H](CC(C)C)NC(=O)[C@@H](C)NC1=O	10.52
CC[C@H](C)[C@H]1NC(=O)[C@@H](Cc2ccccc2)NC(=O)[C@@H](C)NC(=O)[C@H](NC(C)=O)CSC(=O)[C@@H](CCSC)NC1=O	8.30

We next turn to a different compound, shown below.
For the compound "CC[C@@H](C)[C@H](N)C(=O)N[C@H](CC(N)=O)C(=O)N(C)[C@@H]1CSC(=O)[C@@H](CC(C)C)N(C)C(=O)[C@@H](CC(C)C)NC(=O)[C@@H](Cc2ccccc2)NC(=O)[C@@H](CC(=O)O)NC1=O" , give its reported pIC50.
6.97
